Data provenance: patent US5674697A

I50 (pg/well) values, listed per item
test system: DD-3 antibody; test: Direct competitive EIA with immobilized DD-3 monoclonal antibody and competitor-HRP conjugate; format: binding, mouse; settings: analyte 2,3,7,8-tetrachlorodibenzo-p-dioxin; listed competitor as HRP conjugate; DD-3 antibody
measured_property: I50 (pg/well)

> print(dat)
                              mol  units.symbol  data.value
1  O=C(O)CCCC(=O)c1ccc(Cl)c(Cl)c1       pg/well         230
2        O=C(O)CCCSc1cc(Cl)ccc1Cl       pg/well         380
3        O=C(O)CCCOc1ccc(Cl)cc1Cl       pg/well         230
4        O=C(O)CCc1ccc(Cl)c(Cl)c1       pg/well         350
5      O=C(O)CCCOc1ccc(Cl)c(Cl)c1       pg/well         380
